targetOfAssay: H-2 K^d (Mus musculus, UniProt P01902)
protocolNotes: Binding assays: inhibition of binding of a radiolabeled standard peptide to purified MHC molecules
particulars: mutant peptide; read-out: Measured IC50 for K^d (Mut/WT): Mut
Peptide text beside a SMILES is read from it.
# key: entry, value: pIC50
Just so you know, pIC50 here is -log10 of the concentration in molar units; reply with that number alone.

{"columns": ["compound", "parameter", "measValue"],
 "data": [
  ["CC[C@H](C)[C@H](NC(=O)[C@H](C)NC(=O)[C@H](Cc1ccc(O)cc1)NC(=O)[C@H](CCC(N)=O)NC(=O)[C@@H](NC(=O)[C@H](CC(C)C)NC(=O)[C@H](Cc1ccc(O)cc1)NC(=O)[C@@H]1CCCN1)[C@@H](C)O)C(=O)N[C@H](C(=O)N[C@@H](CCSC)C(=O)O)[C@@H](C)CC [Dhx8.4] (H-PYLTQYAIIM-OH)", "pIC50", 5.18]
]}

The reported pIC50 of the compound CC[C@H](C)[C@H](NC(=O)[C@H](C)NC(=O)[C@H](Cc1ccc(O)cc1)NC(=O)[C@H](CCC(N)=O)NC(=O)[C@@H](NC(=O)[C@H](CC(C)C)NC(=O)[C@H](Cc1ccc(O)cc1)NC(=O)[C@@H]1CCCN1)[C@@H](C)O)C(=O)N[C@H](C(=O)N[C@@H](CCSC)C(=O)N[C@@H](CC(C)C)C(=O)O)[C@@H](C)CC [Dhx8.1] (H-PYLTQYAIIML-OH) was 5.66

----------
targetOfAssay: H-2 K^d (Mus musculus, UniProt P01902)
protocolNotes: Binding assays: inhibition of binding of a radiolabeled standard peptide to purified MHC molecules
particulars: WT counterpart peptide; read-out: Measured IC50 for K^d (Mut/WT): WT
Peptide text beside a SMILES is read from it.
# reported IC50; entries follow
Quick note: give the figure in µM, leave out the unit.

{"columns": ["compound", "measValue"],
 "data": [
  ["CSCC[C@H](NC(=O)[C@H](CC(C)C)NC(=O)CNC(=O)[C@@H]1CCCN1C(=O)[C@H](Cc1ccccc1)NC(=O)[C@@H](N)C(C)C)C(=O)N[C@@H](CCC(=O)O)C(=O)N[C@@H](CC(C)C)C(=O)O [Atxn10.2, VFPGLME(l/R)] (H-VFPGLMEL-OH; N-terminus and C-terminus assumed)", 1.11]
]}

// next item, IC50 requested
Form field IC50, entry CSCC[C@H](NC(=O)[C@@H]1CCCN1C(=O)[C@@H](NC(=O)[C@H](Cc1ccc(O)cc1)NC(=O)[C@@H](N)CC(=O)O)C(C)C)C(=O)N[C@@H](CCC(=O)O)C(=O)N[C@@H](CCC(N)=O)C(=O)N1CCC[C@H]1C(=O)N[C@@H](CCCNC(=N)N)C(=O)N1CCC[C@H]1C(=O)O [Alkbh6.3] (H-DYVPMEQPRP-OH; N-terminus and C-terminus assumed) : 23.6

----------
targetOfAssay: H-2 K^d (Mus musculus, UniProt P01902)
Sequence (P01902 22-368): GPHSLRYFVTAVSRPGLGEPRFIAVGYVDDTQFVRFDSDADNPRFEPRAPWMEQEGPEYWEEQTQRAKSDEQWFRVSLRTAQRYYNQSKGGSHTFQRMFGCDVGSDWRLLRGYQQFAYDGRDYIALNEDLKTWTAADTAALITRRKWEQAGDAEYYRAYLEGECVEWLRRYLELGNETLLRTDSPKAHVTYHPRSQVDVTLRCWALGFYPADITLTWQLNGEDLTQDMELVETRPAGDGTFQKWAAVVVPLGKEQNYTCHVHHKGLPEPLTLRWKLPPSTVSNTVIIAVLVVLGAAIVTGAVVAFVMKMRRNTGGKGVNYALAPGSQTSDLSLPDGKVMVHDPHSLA
Sequence (P01887 21-119 partner): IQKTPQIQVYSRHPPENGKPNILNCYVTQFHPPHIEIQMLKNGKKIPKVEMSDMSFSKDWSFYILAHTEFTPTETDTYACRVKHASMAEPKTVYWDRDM
protocolNotes: Binding assays: inhibition of binding of a radiolabeled standard peptide to purified MHC molecules
particulars: mutant peptide; read-out: Measured IC50 for K^d (Mut/WT): Mut
Peptide text beside a SMILES is read from it.
# pIC50 values compiled below
Interpret pIC50 as the negative base-10 log of the concentration measured in mol/L.

Some compounds with recorded pIC50:
{"columns": ["compound", "pIC50"],
 "data": [
  ["CC(C)C[C@H](NC(=O)[C@@H]1CCCN1C(=O)[C@@H](NC(=O)[C@H](CCCNC(=N)N)NC(=O)[C@H](CCCCN)NC(=O)[C@H](CC(C)C)NC(=O)[C@H](CC(C)C)NC(=O)[C@@H]1CCCN1C(=O)[C@@H](NC(=O)[C@H](Cc1ccc(O)cc1)NC(=O)[C@@H](N)Cc1ccc(O)cc1)C(C)C)C(C)C)C(=O)O [Alms1.2] (H-YYVPLLKRVPL-OH)", 6.38],
  ["CC(C)C[C@H](N)C(=O)N[C@@H](Cc1ccc(O)cc1)C(=O)N[C@@H](CC(=O)O)C(=O)N[C@H](C(=O)N[C@@H](CC(=O)O)C(=O)N[C@@H](C)C(=O)N[C@@H](C)C(=O)N[C@@H](Cc1ccccc1)C(=O)O)C(C)C [Cpsf2, L(y/D)DVDAAF] (H-LYDVDAAF-OH)", 5.85],
  ["CSCC[C@H](NC(=O)[C@@H]1CCCN1C(=O)[C@@H](NC(=O)[C@H](Cc1ccc(O)cc1)NC(=O)[C@@H](N)CC(=O)O)C(C)C)C(=O)N[C@@H](CCC(=O)O)C(=O)N[C@@H](CCC(N)=O)C(=O)N1CCC[C@H]1C(=O)O [Alkbh6.1, D(y/D)VPMEQP] (H-DYVPMEQP-OH)", 4.22]
]}

// next entry
Lookup result for CC[C@H](C)[C@H](NC(=O)[C@@H](NC(=O)[C@H](C)NC(=O)[C@H](Cc1ccc(O)cc1)NC(=O)[C@H](CCC(N)=O)NC(=O)[C@@H](NC(=O)[C@H](CC(C)C)NC(=O)[C@H](Cc1ccc(O)cc1)NC(=O)[C@@H]1CCCN1)[C@@H](C)O)[C@@H](C)CC)C(=O)O [Dhx8.3, P(y/D)LTQYAII] (H-PYLTQYAII-OH) ; measured pIC50: 6.61

----------
targetOfAssay: H-2 K^d (Mus musculus, UniProt P01902)
protocolNotes: Binding assays: inhibition of binding of a radiolabeled standard peptide to purified MHC molecules
particulars: WT counterpart peptide; read-out: Measured IC50 for K^d (Mut/WT): WT
Peptide text beside a SMILES is read from it.
Below, each entry is listed alongside its reported pIC50.
Kindly note that pIC50 refers to -log10 of the concentration in mol/L and answer with the value alone.

Solved cases below.
{"columns": ["molecule", "pIC50"],
 "data": [
  ["CC(C)C[C@H](NC(=O)[C@H](CCC(=O)O)NC(=O)[C@H](Cc1c[nH]c2ccccc12)NC(=O)[C@H](CS)NC(=O)[C@@H](NC(=O)[C@H](CCC(=O)O)NC(=O)[C@H](CS)NC(=O)[C@H](Cc1ccc(O)cc1)NC(=O)[C@H](C)N)[C@@H](C)O)C(=O)O [Apc] (H-AYCETCWEL-OH)", 7.22],
  ["CSCC[C@H](NC(=O)[C@H](CC(C)C)NC(=O)CNC(=O)[C@@H]1CCCN1C(=O)[C@H](Cc1ccccc1)NC(=O)[C@@H](NC(=O)[C@@H](N)CCC(N)=O)C(C)C)C(=O)N[C@@H](CCC(=O)O)C(=O)N[C@@H](CC(C)C)C(=O)O [Atxn10.1] (H-QVFPGLMEL-OH; N-terminus and C-terminus assumed)", 5.15]
]}

Now turn to the next molecule.
# pIC50 (molecule: CC(C)C[C@H](NC(=O)[C@H](CCC(=O)O)NC(=O)[C@H](CC(=O)O)NC(=O)[C@H](CCC(=O)O)NC(=O)[C@H](CC(C)C)NC(=O)[C@H](CC(C)C)NC(=O)CNC(=O)[C@H](CCC(N)=O)NC(=O)[C@H](CC(C)C)NC(=O)[C@@H](N)CCC(=O)O)C(=O)O [Ccdc136] (H-ELQGLLEDEL-OH; N-terminus and C-terminus assumed) ) is 5.34

----------
targetOfAssay: H-2 K^d (Mus musculus)
Sequence (P01902 22-368): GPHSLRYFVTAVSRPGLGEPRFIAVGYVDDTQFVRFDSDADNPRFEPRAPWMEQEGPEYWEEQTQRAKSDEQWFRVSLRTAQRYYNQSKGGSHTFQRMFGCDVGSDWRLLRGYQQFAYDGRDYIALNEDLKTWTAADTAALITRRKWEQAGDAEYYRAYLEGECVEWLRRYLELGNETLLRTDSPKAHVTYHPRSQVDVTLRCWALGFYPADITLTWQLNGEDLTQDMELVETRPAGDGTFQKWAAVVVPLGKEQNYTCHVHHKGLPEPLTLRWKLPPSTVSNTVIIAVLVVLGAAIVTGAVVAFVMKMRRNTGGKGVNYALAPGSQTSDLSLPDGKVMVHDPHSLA
Sequence (P01887 21-119 partner): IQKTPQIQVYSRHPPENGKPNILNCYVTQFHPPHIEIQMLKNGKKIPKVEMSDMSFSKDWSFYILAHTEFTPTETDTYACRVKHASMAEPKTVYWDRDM
protocolNotes: Binding assays: inhibition of binding of a radiolabeled standard peptide to purified MHC molecules
Peptide text beside a SMILES is read from it.
# key: entry, value: pIC50
// scale note: pIC50 = -log10(conc_M); give the bare number

{"columns": ["compound", "targetOfAssay", "pIC50"],
 "data": [
  ["CC[C@H](C)[C@H](NC(=O)[C@H](CS)NC(=O)[C@H](CC(C)C)NC(=O)[C@H](C)NC(=O)[C@H](CCC(N)=O)NC(=O)[C@H](CC(C)C)NC(=O)[C@H](CCSC)NC(=O)[C@H](Cc1ccc(O)cc1)NC(=O)[C@@H](N)CO)C(=O)N1CCC[C@H]1C(=O)O [Tnpo3.3] (H-SYMLQALCIP-OH)", "H-2 K^d (Mus musculus)", 6.95],
  ["CC[C@H](C)[C@H](NC(=O)[C@@H](NC(=O)[C@H](C)NC(=O)[C@H](Cc1ccc(O)cc1)NC(=O)[C@H](CCC(N)=O)NC(=O)[C@@H](NC(=O)[C@H](CC(C)C)NC(=O)[C@H](Cc1ccc(O)cc1)NC(=O)[C@@H]1CCCN1)[C@@H](C)O)[C@@H](C)CC)C(=O)O [Dhx8.3, P(y/D)LTQYAII] (H-PYLTQYAII-OH)", "H-2 K^d (Mus musculus)", 5.85],
  ["CC[C@H](C)[C@H](NC(=O)[C@H](C)NC(=O)[C@H](Cc1ccc(O)cc1)NC(=O)[C@H](CCC(N)=O)NC(=O)[C@@H](NC(=O)[C@H](CC(C)C)NC(=O)[C@H](Cc1ccc(O)cc1)NC(=O)[C@@H]1CCCN1)[C@@H](C)O)C(=O)N[C@H](C(=O)N[C@@H](CCSC)C(=O)O)[C@@H](C)CC [Dhx8.4] (H-PYLTQYAIIM-OH)", "H-2 K^d (Mus musculus)", 5.20]
]}

Recorded result, CC[C@H](C)[C@H](NC(=O)[C@H](C)NC(=O)[C@H](Cc1ccc(O)cc1)NC(=O)[C@H](CCC(N)=O)NC(=O)[C@@H](NC(=O)[C@H](CC(C)C)NC(=O)[C@H](Cc1ccc(O)cc1)NC(=O)[C@@H]1CCCN1)[C@@H](C)O)C(=O)N[C@H](C(=O)N[C@@H](CCSC)C(=O)N[C@@H](CC(C)C)C(=O)O)[C@@H](C)CC [Dhx8.1] (H-PYLTQYAIIML-OH) , pIC50: 5.78

Recorded pIC50 (compound CC(C)C[C@H](NC(=O)[C@@H]1CCCN1C(=O)[C@@H](NC(=O)[C@H](CCCNC(=N)N)NC(=O)[C@H](CCCCN)NC(=O)[C@H](CC(C)C)NC(=O)[C@H](CC(C)C)NC(=O)[C@@H]1CCCN1C(=O)[C@@H](NC(=O)[C@H](Cc1ccc(O)cc1)NC(=O)[C@@H](N)Cc1ccc(O)cc1)C(C)C)C(C)C)C(=O)O [Alms1.2] (H-YYVPLLKRVPL-OH) ): 5.83

Reference source for all entries: patent US11338026B2
